Cited source: the supplement of paper PMC6555819

Tested on: PPARg:RXRa (NR concentration 180 nM, RXRa partner concentration 90 nM)
Test: PBM binding z-score (relative to random genomic background probes); higher = stronger binding; sequences stand for … in GC…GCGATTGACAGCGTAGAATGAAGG
Mark false for PBM binding z-score values under 1, and true for everything at or above.

- INPUT SEQUENCE: "GCTAGTTGGTCAGTAAACGGTCACACACCGGTCG"
  TARGET OR SYSTEM: "PPARg:RXRa (NR concentration 180 nM, RXRa partner concentration 90 nM)"
  CAT: "false"
- INPUT SEQUENCE: "AGTGAAAGTTCACTAGGTAACGTAAGATTCAGCT"
  TARGET OR SYSTEM: "PPARg:RXRa (NR concentration 180 nM, RXRa partner concentration 90 nM)"
  CAT: "true"
- INPUT SEQUENCE: "GCTATTAGTTGAAAGGGCAACCGGATGATTCTCG"
  TARGET OR SYSTEM: "PPARg:RXRa (NR concentration 180 nM, RXRa partner concentration 90 nM)"
  CAT: "true"
- INPUT SEQUENCE: "CCTGCTGGGCCATCAGGTCATTGATATCAACGTT"
  TARGET OR SYSTEM: "PPARg:RXRa (NR concentration 180 nM, RXRa partner concentration 90 nM)"
  CAT: "false"
- INPUT SEQUENCE: "AGAACGAGGGCAATGAGTTGATAGCGCGGGTGGC"
  TARGET OR SYSTEM: "PPARg:RXRa (NR concentration 180 nM, RXRa partner concentration 90 nM)"
  CAT: "false"
- INPUT SEQUENCE: "TAGCCTAGGACATTCAGGGGCCAGTATAGAAAGC"
  TARGET OR SYSTEM: "PPARg:RXRa (NR concentration 180 nM, RXRa partner concentration 90 nM)"
  CAT: "false"
- INPUT SEQUENCE: "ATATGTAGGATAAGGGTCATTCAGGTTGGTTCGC"
  TARGET OR SYSTEM: "PPARg:RXRa (NR concentration 180 nM, RXRa partner concentration 90 nM)"
  CAT: "true"
- INPUT SEQUENCE: "AGAATGATGTTATTAAGATCAGGGAATTGCGGTC"
  TARGET OR SYSTEM: "PPARg:RXRa (NR concentration 180 nM, RXRa partner concentration 90 nM)"
  CAT: "false"
- INPUT SEQUENCE: "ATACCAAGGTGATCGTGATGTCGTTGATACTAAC"
  TARGET OR SYSTEM: "PPARg:RXRa (NR concentration 180 nM, RXRa partner concentration 90 nM)"
  CAT: "false"
- INPUT SEQUENCE: "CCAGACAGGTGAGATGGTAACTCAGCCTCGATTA"
  TARGET OR SYSTEM: "PPARg:RXRa (NR concentration 180 nM, RXRa partner concentration 90 nM)"
  CAT: "false"
- INPUT SEQUENCE: "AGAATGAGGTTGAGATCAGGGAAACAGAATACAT"
  TARGET OR SYSTEM: "PPARg:RXRa (NR concentration 180 nM, RXRa partner concentration 90 nM)"
  CAT: "false"
- INPUT SEQUENCE: "CGTCCTAGGTCAGCAGGTCAGTGAAAGCGACGTG"
  TARGET OR SYSTEM: "PPARg:RXRa (NR concentration 180 nM, RXRa partner concentration 90 nM)"
  CAT: "true"
- INPUT SEQUENCE: "ATCTCTAGGGAAAGATAGTTCAGTGAATGCAAAT"
  TARGET OR SYSTEM: "PPARg:RXRa (NR concentration 180 nM, RXRa partner concentration 90 nM)"
  CAT: "false"
- INPUT SEQUENCE: "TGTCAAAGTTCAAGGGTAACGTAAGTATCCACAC"
  TARGET OR SYSTEM: "PPARg:RXRa (NR concentration 180 nM, RXRa partner concentration 90 nM)"
  CAT: "true"
- INPUT SEQUENCE: "TTACCAAGGTGCAGGTCGTTGATCCCTCTGTAGA"
  TARGET OR SYSTEM: "PPARg:RXRa (NR concentration 180 nM, RXRa partner concentration 90 nM)"
  CAT: "false"
- INPUT SEQUENCE: "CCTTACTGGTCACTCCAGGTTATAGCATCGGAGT"
  TARGET OR SYSTEM: "PPARg:RXRa (NR concentration 180 nM, RXRa partner concentration 90 nM)"
  CAT: "false"
- INPUT SEQUENCE: "CTACCAAGGTGAACGAGGTCGTTGATTACTATTC"
  TARGET OR SYSTEM: "PPARg:RXRa (NR concentration 180 nM, RXRa partner concentration 90 nM)"
  CAT: "true"
- INPUT SEQUENCE: "CTCGAAAGGTCGATTGAGGTGAGTATACGGATAA"
  TARGET OR SYSTEM: "PPARg:RXRa (NR concentration 180 nM, RXRa partner concentration 90 nM)"
  CAT: "true"
- INPUT SEQUENCE: "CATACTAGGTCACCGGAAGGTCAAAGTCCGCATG"
  TARGET OR SYSTEM: "PPARg:RXRa (NR concentration 180 nM, RXRa partner concentration 90 nM)"
  CAT: "true"
- INPUT SEQUENCE: "ACTAGCAGGCCAAATTTGGGTCACTCAAACAAAG"
  TARGET OR SYSTEM: "PPARg:RXRa (NR concentration 180 nM, RXRa partner concentration 90 nM)"
  CAT: "true"
- INPUT SEQUENCE: "CTCGAAAGGTCGTGCTCAGGTGAGTGTACCAAAC"
  TARGET OR SYSTEM: "PPARg:RXRa (NR concentration 180 nM, RXRa partner concentration 90 nM)"
  CAT: "true"
- INPUT SEQUENCE: "TCTCGGAGGACACGAAGGTCACAGCTTTCCAGAG"
  TARGET OR SYSTEM: "PPARg:RXRa (NR concentration 180 nM, RXRa partner concentration 90 nM)"
  CAT: "true"
- INPUT SEQUENCE: "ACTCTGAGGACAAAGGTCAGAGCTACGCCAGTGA"
  TARGET OR SYSTEM: "PPARg:RXRa (NR concentration 180 nM, RXRa partner concentration 90 nM)"
  CAT: "true"
- INPUT SEQUENCE: "TTACCAAGGTGAAGGTGGTTGATCCCTCTGTAGA"
  TARGET OR SYSTEM: "PPARg:RXRa (NR concentration 180 nM, RXRa partner concentration 90 nM)"
  CAT: "false"
- INPUT SEQUENCE: "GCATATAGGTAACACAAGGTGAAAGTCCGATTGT"
  TARGET OR SYSTEM: "PPARg:RXRa (NR concentration 180 nM, RXRa partner concentration 90 nM)"
  CAT: "true"
